I'd be grateful if you could share measured EC50 for these entries.
target: human GPR55 (Homo sapiens, UniProt Q9Y2T6); assay: Ca2+ mobilization assay (FLIPR, Calcium5 dye), human GPR55; conditions: HEK293 cells co-expressing PK-tagged human GPR55 and EA-tagged beta-arrestin; intracellular calcium increase
Sequence (Q9Y2T6 whole entry): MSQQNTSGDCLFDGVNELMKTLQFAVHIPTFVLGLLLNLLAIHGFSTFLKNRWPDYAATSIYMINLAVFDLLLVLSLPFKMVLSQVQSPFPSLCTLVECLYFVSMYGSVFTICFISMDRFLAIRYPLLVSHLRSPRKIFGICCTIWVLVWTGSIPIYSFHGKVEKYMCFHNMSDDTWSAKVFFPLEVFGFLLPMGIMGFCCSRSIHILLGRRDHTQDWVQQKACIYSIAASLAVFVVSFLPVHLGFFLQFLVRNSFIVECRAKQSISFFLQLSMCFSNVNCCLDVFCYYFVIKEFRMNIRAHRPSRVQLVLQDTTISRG

Note to self: EC50 recorded for CNCc1cncc(-c2cnc(N[C@H](C)c3ccc(F)cc3)cn2)c1 [Example 37] was ≤ 200 nM

Note to self: EC50 recorded for COc1cncc(-c2ccc(N[C@H](C)c3ccc(F)cc3)nc2)c1 [Example 6] was ≤ 200 nM

Note to self: EC50 recorded for C=Cc1cncc(-c2cnc(N[C@H](C)c3ccc(F)cc3)cn2)c1 [Example 33] was ≤ 50 nM

Note to self: EC50 recorded for C[C@@H](Nc1ncc(-c2cncc(CO)c2)nn1)c1ccc(F)cc1 [Example 41] was ≤ 200 nM

Note to self: EC50 recorded for C[C@@H](Nc1ncc(-c2ccc3oc(=O)n(CCN(C)C)c3c2)nn1)c1ccc(F)cc1 [Example 71] was ≤ 1000 nM

Note to self: EC50 recorded for C[C@@H](Nc1cnc(-c2cncc(C(O)C(F)(F)F)c2)cn1)c1ccc(F)cc1 (mixture of isomers) [Example 32] was ≤ 200 nM

Note to self: EC50 recorded for CCc1cncc(-c2ccc(N[C@H](C)c3ccc(C)cc3)nc2)c1 [Example 50] was ≤ 1000 nM

Note to self: EC50 recorded for CC(Nc1ncc(-c2ccc3oc(=O)n(C)c3c2)nn1)c1ccc(C#N)cc1 (stereo not drawn) [Example 74] was ≤ 1000 nM

Note to self: EC50 recorded for C[C@@H](Nc1ncc(-c2cnc3c(c2)ncn3C)nn1)c1ccc(F)cc1 [Example 83] was ≤ 5000 nM

Note to self: EC50 recorded for C[C@@H](Nc1cnc(-c2cnnc(CC(F)(F)F)c2)cn1)c1ccc(F)cc1 [Example 57] was ≤ 50 nM

Note to self: EC50 recorded for C[C@@H](Nc1ncc(-c2ccc3ocnc3c2)nn1)c1ccc(F)cc1 [Example 80] was ≤ 200 nM

Note to self: EC50 recorded for C[C@@H](Nc1ccc(-c2ccc3[nH]c(=O)oc3c2)cn1)c1ccc(F)cc1 [Example 61] was ≤ 1000 nM

Note to self: EC50 recorded for OC(c1cncc(-c2cnc(N[C@@H]3CCc4ccccc43)cn2)c1)C(F)F (stereo partly drawn) [Example 45] was ≤ 200 nM

Note to self: EC50 recorded for CCc1cncc(-c2cnc(N[C@H](C)c3ccc(F)cc3)cn2)c1 [Example 17] was ≤ 50 nM

Note to self: EC50 recorded for C[C@@H](Nc1ccc(-c2cncc([S+](C)[O-])c2)cn1)c1ccc(F)cc1 (stereo partly drawn) [Example 14] was ≤ 200 nM

Note to self: EC50 recorded for C[C@@H](Nc1ncc(-c2cnc3ncn(C)c3c2)nn1)c1ccc(F)cc1 [Example 82] was ≤ 1000 nM

Note to self: EC50 recorded for C=Cc1cncc(-c2ccc(N[C@H](C)c3ccc(F)cc3)nc2)c1 [Example 20] was ≤ 50 nM

Note to self: EC50 recorded for C[C@@H](Nc1cnc(-c2cncc(CC(F)(F)F)c2)nn1)c1ccc(F)cc1 [Example 56] was ≤ 1000 nM

---

target: UniProt F1MAK4; test: Ca2+ mobilization assay (FLIPR, Calcium5 dye), rat GPR55; details: HEK293 cells co-expressing PK-tagged rat GPR55 and EA-tagged beta-arrestin; intracellular calcium increase
pEC50: −log10 of the molar value.
I'd be grateful if you could share measured pEC50 for these entries.

Note to self: pEC50 recorded for "C=Cc1cc(-c2cnc(N[C@H](C)c3ccc(F)cc3)cn2)cnn1" was ≥ 5.30

Note to self: pEC50 recorded for CC(Nc1ncc(-c2ccc3oc(=O)n(C)c3c2)nn1)c1ccc(Cl)c(Cl)c1 (single isomer, unassigned) [Example 78a] was ≥ 6.00

Note to self: pEC50 recorded for "CCc1cncc(-c2ccc(N[C@H](C)c3ccc(F)cc3)nc2)c1" was ≥ 6.00

Note to self: pEC50 recorded for "C[C@@H](Nc1ccc(-c2ccc3[nH]c(=O)oc3c2)cn1)c1ccc(F)cc1" was ≥ 5.30

Note to self: pEC50 recorded for "C[C@@H](Nc1ncc(-c2ccc3ncn(C)c3c2)nn1)c1ccc(F)cc1" was ≥ 5.30

Note to self: pEC50 recorded for "C[C@@H](Nc1cnc(-c2cncc(CC(F)(F)F)c2)cn1)c1ccc(F)cc1" was ≥ 5.30

Note to self: pEC50 recorded for "Cc1nc(N[C@H](C)c2ccc(F)cc2)ccc1-c1cncc(S(C)(=O)=O)c1" was ≥ 5.30

Note to self: pEC50 recorded for "C[C@@H](Nc1ncc(-c2cncc(S(C)(=O)=O)c2)cn1)c1ccc(F)cc1" was ≥ 5.30

Note to self: pEC50 recorded for "CCS(=O)(=O)c1cncc(-c2ccc(N[C@H](C)c3ccc(F)cc3)nc2)c1" was ≥ 6.00

Note to self: pEC50 recorded for "C[C@@H](Nc1ccc(-c2cncc(C3CC3)c2)cn1)c1ccc(F)cc1" was ≥ 6.00

Note to self: pEC50 recorded for "C#Cc1cncc(-c2ccc(N[C@H](C)c3ccc(F)cc3)nc2)c1" was ≥ 6.00

Note to self: pEC50 recorded for C[C@@H](Nc1ccc(-c2cncc([S+](C)[O-])c2)cn1)c1ccc(F)cc1 (some centres unmarked) was ≥ 5.30

Note to self: pEC50 recorded for Cc1cncc(-c2ccc(NC(C)c3ccc(Cl)cc3)nc2)c1 (single isomer, unassigned) [Example 46a] was ≥ 6.70

Note to self: pEC50 recorded for "Cc1cncc(-c2ccc(N[C@H](C)c3ccc(F)cc3)nc2)c1C" was ≥ 6.00

Note to self: pEC50 recorded for "C[C@@H](Nc1ncc(-c2cnc3c(c2)ncn3C)nn1)c1ccc(F)cc1" was ≥ 5.30

Note to self: pEC50 recorded for "C[C@@H](Nc1ncc(-c2ccc3oc(=O)n(CCO)c3c2)nn1)c1ccc(F)cc1" was ≥ 5.30

Note to self: pEC50 recorded for C[C@@H](Nc1ccc(-c2cncc(S(C)(=N)=O)c2)cn1)c1ccc(F)cc1 (single isomer, unassigned) [Example 27b] was ≥ 6.00

---

I'd be grateful if you could share measured EC50 for these entries.
molecular target: rat GPR55 (Rattus norvegicus, UniProt F1MAK4); test: Ca2+ mobilization assay (FLIPR, Calcium5 dye), rat GPR55; conditions: HEK293 cells co-expressing PK-tagged rat GPR55 and EA-tagged beta-arrestin; intracellular calcium increase
Sequence (F1MAK4 1-319): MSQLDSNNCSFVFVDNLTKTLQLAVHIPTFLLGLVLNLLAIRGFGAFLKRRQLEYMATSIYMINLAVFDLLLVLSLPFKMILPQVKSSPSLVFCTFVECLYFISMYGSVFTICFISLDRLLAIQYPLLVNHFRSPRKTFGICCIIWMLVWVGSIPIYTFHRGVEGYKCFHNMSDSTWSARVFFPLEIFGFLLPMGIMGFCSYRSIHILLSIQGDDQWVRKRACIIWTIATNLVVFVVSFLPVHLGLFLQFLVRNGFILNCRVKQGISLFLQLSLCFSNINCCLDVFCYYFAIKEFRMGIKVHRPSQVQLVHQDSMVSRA

Note to self: EC50 recorded for CC(Nc1cc(F)c(-c2cncc(S(C)(=O)=O)c2)cn1)c1ccc(F)cc1 (single isomer, unassigned) [Example 29a] was ≤ 1 µM

Note to self: EC50 recorded for CC[S+]([O-])c1cncc(-c2cnc(N[C@H](C)c3ccc(F)cc3)cn2)c1 (stereo partly shown) was ≤ 5 µM

Note to self: EC50 recorded for "C[C@@H](Nc1ccc(-c2ccc3c(c2)N(C)C(=O)C3(F)F)cn1)c1ccc(F)cc1" was ≤ 5 µM

Note to self: EC50 recorded for "CCc1cncc(-c2ccc(N[C@H](C)c3ccc(C)cc3)nc2)c1" was ≤ 5 µM

---

target: rat GPR55 (Rattus norvegicus, UniProt F1MAK4); test: Ca2+ mobilization assay (FLIPR, Calcium5 dye), rat GPR55; details: HEK293 cells co-expressing PK-tagged rat GPR55 and EA-tagged beta-arrestin; intracellular calcium increase
pEC50: −log10 of the molar value.
measuredEndpoint: pEC50

Note to self: pEC50 recorded for C[C@@H](Nc1cnc(-c2cncc(C(O)C(F)F)c2)cn1)c1ccc(F)cc1 (single isomer, unassigned) [Example 54b] was ≥ 6.00

Note to self: pEC50 recorded for C[C@@H](Nc1cnc(-c2cncc(C(O)C(F)(F)F)c2)cn1)c1ccc(F)cc1 (single isomer, unassigned) [Example 32b] was ≥ 6.00

Note to self: pEC50 recorded for "C[C@@H](Nc1ncc(-c2ccc3oc(=O)n(CS(C)(=O)=O)c3c2)nn1)c1ccc(F)cc1" was ≥ 5.30

Note to self: pEC50 recorded for CC(O)c1cncc(-c2ccc(N[C@H](C)c3ccc(F)cc3)nc2)c1 (single isomer, unassigned) [Example 16b] was ≥ 6.70

Note to self: pEC50 recorded for "C[C@@H](Nc1cnc(-c2cncc(C=C(F)F)c2)cn1)c1ccc(F)cc1" was ≥ 6.00

Note to self: pEC50 recorded for CC[S+]([O-])c1cncc(-c2ccc(N[C@H](C)c3ccc(F)cc3)nc2)c1 (stereo partly shown) was ≥ 5.30

Note to self: pEC50 recorded for CN=S(C)(=O)c1cncc(-c2ccc(N[C@H](C)c3ccc(F)cc3)nc2)c1 (single isomer, unassigned) [Example 30b] was ≥ 6.00

---

target: rat GPR55 (Rattus norvegicus, UniProt F1MAK4); experiment: Ca2+ mobilization assay (FLIPR, Calcium5 dye), rat GPR55; conditions: HEK293 cells co-expressing PK-tagged rat GPR55 and EA-tagged beta-arrestin; intracellular calcium increase
pEC50: −log10 of the molar value.
measuredEndpoint: pEC50

Note to self: pEC50 recorded for C[C@@H](Nc1cnc(-c2cncc(C(O)C(F)(F)F)c2)cn1)c1ccc(F)cc1 (mixture of isomers) [Example 32] was ≥ 7.30

Note to self: pEC50 recorded for CC(O)c1cncc(-c2ccc(N[C@H](C)c3ccc(F)cc3)nc2)c1 (single isomer, unassigned) [Example 16a] was ≥ 7.30

Note to self: pEC50 recorded for CNCc1cncc(-c2cnc(N[C@H](C)c3ccc(F)cc3)cn2)c1 [Example 37] was ≥ 7.30

Note to self: pEC50 recorded for C=Cc1cncc(-c2ccc(N[C@H](C)c3ccc(F)cc3)nc2)c1 [Example 20] was ≥ 7.30

Note to self: pEC50 recorded for C[C@@H](Nc1ncc(-c2ccc3oc(=O)n(C(F)F)c3c2)nn1)c1ccc(F)cc1 [Example 68] was ≥ 6.00

Note to self: pEC50 recorded for COc1cncc(-c2ccc(N[C@H](C)c3ccc(F)cc3)nc2)c1 [Example 6] was ≥ 7.30

Note to self: pEC50 recorded for CN=S(C)(=O)c1cncc(-c2ccc(N[C@H](C)c3ccc(F)cc3)nc2)c1 (single isomer, unassigned) [Example 30a] was ≥ 7.30

Note to self: pEC50 recorded for OC(c1cncc(-c2cnc(N[C@@H]3CCc4ccccc43)cn2)c1)C(F)F (some centres unmarked) [Example 45] was ≥ 6.00
